# System: Wolbachia pipientis
# assay-overview: Anti-Wolbachia Cell-Based Screen
# Format: functional
# Design: scale not given: in the data most compounds retested in dose-response had high values
# condition-summary: 5 µM
Hit rate of the full screen: of about 48,000 compounds, about 13,000 (27%) showed an effect of 50% or more. The list shows a part of the results.
endpoint: Percent Effect

Answered cases to consult:
Cc1cccc(C)c1OC1CN(C(=O)C2CCN(C(=O)N(C)C)CC2)C1; -8.295%
Cc1cccc(CN2C[C@@H](CN3CCCN(C)CC3)C[C@H](CO)C2)n1; -14.48%

# input Given the compound Cc1ccc(CN2CC[C@@H]3O[C@@H](C(=O)N4CCN(C)CC4)C[C@@H]32)cc1.O=C(O)C(F)(F)F.O=C(O)C(F)(F)F , what is its reported Percent Effect?
# output 117.4%

# input Given the compound CN1CCN(C(=O)[C@H]2CC[C@@H]3[C@@H](CCN3Cc3ccsc3)O2)CC1.O=C(O)C(F)(F)F.O=C(O)C(F)(F)F , what is its reported Percent Effect?
# output -13.28%

# input Given the compound O=C(O)C(F)(F)F.O=C([C@@H]1CC[C@@H]2[C@@H](CCN2Cc2cccs2)O1)N1CCCCO1 , what is its reported Percent Effect?
# output -2.602%

# input Given the compound Cc1ccc(CN2CC[C@H]3[C@H]2CCN3S(=O)(=O)C2CC2)cc1.O=C(O)C(F)(F)F , what is its reported Percent Effect?
# output -0.5114%

# input Given the compound O=C(O)C1CCN(c2nc3c(-c4ccccc4F)csc3c(=O)[nH]2)CC1 , what is its reported Percent Effect?
# output -3.996%

# input Given the compound Cc1cnn(Cc2cc(F)ccc2F)c1NC(=O)C1COCCO1 (stereo not drawn) , what is its reported Percent Effect?
# output -3.747%
